In this section, each of the variants is paired with its reported one-hybrid fitness for binding parS DNA.
B1: Caulobacter ParB omega fusion; a variant is named by its letters at X, in order, B8GW30 (parent)
chain: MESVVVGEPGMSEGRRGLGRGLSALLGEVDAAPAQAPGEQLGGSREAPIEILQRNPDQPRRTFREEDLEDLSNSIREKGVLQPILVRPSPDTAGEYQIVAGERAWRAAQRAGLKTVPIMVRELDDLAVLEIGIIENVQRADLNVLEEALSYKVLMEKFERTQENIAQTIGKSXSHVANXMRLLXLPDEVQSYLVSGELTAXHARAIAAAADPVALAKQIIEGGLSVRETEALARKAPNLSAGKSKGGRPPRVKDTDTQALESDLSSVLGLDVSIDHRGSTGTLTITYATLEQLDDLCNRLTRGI

Variants of: B1
assay: one-hybrid fitness for binding parS DNA (scaled: cognate 1, non-cognate 0); higher = stronger binding
experimental_setup: with parS DNA site
The full ranking holds about 81,000 sequences; the median of “one-hybrid fitness for binding parS DNA” is about -0.17, and the highest 2% start at about 0.51. This is one part of a sample in which the highest values are shown more often than they occur.
The answer should be written as a number, with no unit following it.

[[record]]
mutant = "RTDT"
value_reported = 0.802

[[record]]
mutant = "RWYY"
value_reported = 0.248

[[record]]
mutant = "RCKW"
value_reported = 0.367

[[record]]
mutant = "RTNT"
value_reported = 0.86

[[record]]
mutant = "RWKS"
value_reported = 0.961

[[record]]
mutant = "RWKH"
value_reported = 0.228


Query block: Field request: one-hybrid fitness for binding parS DNA | item: `RWVS`
Result block: 0.616

Query block: Field request: one-hybrid fitness for binding parS DNA | item: `RMRW`
Result block: 0.586

Query block: Field request: one-hybrid fitness for binding parS DNA | item: `RMKW`
Result block: 0.694
